# Read-out: Glutamate-cysteine ligase catalytic (GCLC), GCLC (gene 2729)
# PROTOCOL_DETAILS: LTEA_HepaRG_GCLC: Life Technologies and Expression Analysis (LTEA) Assay for Glutamate-cysteine ligase catalytic (GCLC) using HepaRG (AID 2283498)
# TEST_SETTINGS: mRNA level, 48 h; actives raise or lower the signal
Active and inactive are the calls of the source. The calls were made as follows: active = hit-call score of the fitted dose curve at least 0.9, where 1 is the maximum; inactive = score below 0.9.
Respond with a class label; see yes for active, no for inactive

Request: Which outcome did this test record for the compound CNC(=O)Oc1cccc(N=CN(C)C)c1 ?
Response: no

Request: Which outcome did this test record for the compound CC(C)(C)C(O)C(Oc1ccc(Cl)cc1)n1cncn1 (stereo not drawn) ?
Response: no

Request: Which outcome did this test record for the compound COP(=O)(OC)OC=C(Cl)Cl ?
Response: no

Request: Which outcome did this test record for the compound O=S(=O)(O)C(F)(F)C(F)(F)C(F)(F)C(F)(F)C(F)(F)C(F)(F)C(F)(F)C(F)(F)F ?
Response: no

Request: Which outcome did this test record for the compound CCc1ccc(C(=O)NN(C(=O)c2cc(C)cc(C)c2)C(C)(C)C)cc1 ?
Response: no

Request: Which outcome did this test record for the compound CC1(c2ccc(Oc3ccccc3)cc2)OC(=O)N(Nc2ccccc2)C1=O (stereo not drawn) ?
Response: no

Request: Which outcome did this test record for the compound O=C(Nc1ccccc1)Nc1cnns1 ?
Response: no

Request: Which outcome did this test record for the compound CC1(C)C(C=C(Cl)Cl)C1C(=O)OC(C#N)c1ccc(F)c(Oc2ccccc2)c1 (stereo not drawn) ?
Response: no

Request: Which outcome did this test record for the compound O=C(O)C(F)(F)C(F)(F)C(F)(F)C(F)(F)C(F)(F)C(F)(F)C(F)(F)F ?
Response: no

Request: Which outcome did this test record for the compound CC(C)OC(=O)Nc1cccc(Cl)c1 ?
Response: no

Request: Which outcome did this test record for the compound O=S1OCC2C(CO1)C1(Cl)C(Cl)=C(Cl)C2(Cl)C1(Cl)Cl (stereo not drawn) ?
Response: no

Request: Which outcome did this test record for the compound C[C@H]1[C@H](c2ccc(Cl)cc2)SC(=O)N1C(=O)NC1CCCCC1 ?
Response: yes

Request: Which outcome did this test record for the compound CCCN(CCOc1c(Cl)cc(Cl)cc1Cl)C(=O)n1ccnc1 ?
Response: yes
